- SYSTEM NAME: human CB1 receptor (Homo sapiens)
- Construct: expressed in transfected cells; host or cells: HEK-293
- Sequence (P21554 whole entry): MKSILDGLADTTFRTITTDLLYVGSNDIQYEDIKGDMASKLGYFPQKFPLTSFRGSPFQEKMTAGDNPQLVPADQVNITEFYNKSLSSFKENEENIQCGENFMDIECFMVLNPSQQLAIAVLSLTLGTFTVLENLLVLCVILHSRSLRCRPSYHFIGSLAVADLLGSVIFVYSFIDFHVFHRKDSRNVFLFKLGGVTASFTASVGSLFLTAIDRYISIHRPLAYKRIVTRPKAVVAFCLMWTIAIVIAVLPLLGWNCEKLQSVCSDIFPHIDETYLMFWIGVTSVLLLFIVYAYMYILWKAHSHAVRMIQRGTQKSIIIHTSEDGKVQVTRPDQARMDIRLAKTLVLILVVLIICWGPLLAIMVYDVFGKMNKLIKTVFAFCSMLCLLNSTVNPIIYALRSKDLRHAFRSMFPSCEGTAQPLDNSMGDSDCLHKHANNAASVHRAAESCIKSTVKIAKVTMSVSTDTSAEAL
- PROCEDURE TEXT: Radioligand displacement in human CB1 receptor-transfected cells (HEK-293)
- Type: binding
Max. Disp. %, 3H-WIN55212-2 listing for selected compounds.

[
  {
    "COMPOUND": "CCCCCCCCCNC(=O)c1nn(-c2ccc(Cl)cc2Cl)c(-c2ccc(Cl)cc2)c1C",
    "Max. Disp. %, 3H-WIN55212-2 / %": 28.3
  },
  {
    "COMPOUND": "CCCCCCCCNC(=O)c1nn(-c2ccc(Cl)cc2Cl)c(-c2ccc(Cl)cc2)c1C",
    "Max. Disp. %, 3H-WIN55212-2 / %": 35.2
  },
  {
    "COMPOUND": "CCCCCC(C)NC(=O)c1nn(-c2ccc(Cl)cc2Cl)c(-c2ccc(Cl)cc2)c1C (stereo not drawn)",
    "Max. Disp. %, 3H-WIN55212-2 / %": 100
  },
  {
    "COMPOUND": "CCCCCCC(C)(C)NC(=O)c1nn(-c2ccc(Cl)cc2Cl)c(-c2ccc(Cl)cc2)c1C",
    "Max. Disp. %, 3H-WIN55212-2 / %": 86.5
  },
  {
    "COMPOUND": "CCCCCCCCCCNC(=O)c1nn(-c2ccc(Cl)cc2Cl)c(-c2ccc(Cl)cc2)c1C",
    "Max. Disp. %, 3H-WIN55212-2 / %": 12.4
  },
  {
    "COMPOUND": "Cc1c(C(=O)NC(C)CCCC(C)C)nn(-c2ccc(Cl)cc2Cl)c1-c1ccc(Cl)cc1 (stereo not drawn)",
    "Max. Disp. %, 3H-WIN55212-2 / %": 67.9
  },
  {
    "COMPOUND": "CCCCCCC(C)NC(=O)c1nn(-c2ccc(Cl)cc2Cl)c(-c2ccc(Cl)cc2)c1C (stereo not drawn)",
    "Max. Disp. %, 3H-WIN55212-2 / %": 0.0
  },
  {
    "COMPOUND": "CCCCCCCNC(=O)c1nn(-c2ccc(Cl)cc2Cl)c(-c2ccc(Cl)cc2)c1C",
    "Max. Disp. %, 3H-WIN55212-2 / %": 53.4
  },
  {
    "COMPOUND": "CCCCCNC(=O)c1nn(-c2ccc(Cl)cc2Cl)c(-c2ccc(Cl)cc2)c1C",
    "Max. Disp. %, 3H-WIN55212-2 / %": 89.9
  }
]
